Test system: A549
Assay protocol: NCI tumour cell line growth inhibition, 48 h
The source made the active and inactive calls. Rule as the data show it: active = GI50 up to about 1.1 µM and inactive = higher.
Each item that follows carries a reported GI50.

For orientation, consider the following solved cases.
compound="Cc1cc(Cl)ccc1NC(=O)CCCC(=O)C1CCCC1=O (stereo not given)" result="> 100 µM (inactive)"
compound="CC(C)C1OC2(C)OC(=N)C1(C#N)C(C#N)(C#N)C2C (stereo not given)" result="> 100 µM (inactive)"
compound="CC(CC[C@@]1(C)C(=O)CCC2O[C@]21C)[C@H]1C[C@@H](c2ccoc2)OC1=O (stereo not given in full)" result="> 100 µM (inactive)"
compound=CCOC(=O)Cc1cc(=O)oc2cc(O)ccc12 result="> 100 µM (inactive)"

// switching to the query compound
Task: Record request: GI50 value, item `Cc1cc(C)cc(NC(N)=S)c1`
Output: > 100 µM (inactive)
